EXPERIMENTAL DETAILS: inhibitors of Clostridioides difficile proliferation – 4-point retest, confirmation (AID 1224921);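 note: plate controls were DMSO wells for no effect and levofloxacin 16 µg/mL wells for full effect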
CONDITION NOTES: Clostridioides difficile clinical isolate growth, OD600, 24 h, hits give low values; at 30 µM unless noted
The whole screen tested about 1,400 compounds, of which about 350 (25%) were called active. About 2% were inconclusive and are not listed. The list is a sample of the results. Entries with a potency or affinity are not part of this list.
EXPERIMENTAL ENDPOINT: max activity

Quick note, max activity for O=C(N[C@@H]1C=C[C@@H](CC(=O)N2CCOCC2)O[C@@H]1CO)c1cccc(F)c1 landed at -15.3% [at 1.95 µM] (inactive)

Quick note, max activity for C[C@H](CO)N1C[C@H](C)[C@H](CN(C)Cc2ccc(C(=O)O)cc2)Oc2ncc(C#CCN(C)C)cc2C1=O landed at -7.61% [at 8 µM] (inactive)

---

EXPERIMENTAL DETAILS: inhibitors of Clostridioides difficile proliferation – 4-point retest, confirmation (AID 1224921);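 note: plate controls were DMSO wells for no effect and levofloxacin 16 µg/mL wells for full effect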
CONDITION NOTES: Clostridioides difficile clinical isolate growth, OD600, 24 h, hits give low values; at 30 µM unless noted
The campaign covered roughly 1,400 compounds. About 350 (25%) were called active. Not shown: some 2% with an inconclusive outcome. These entries were drawn from the full list. Entries with a potency or affinity are not part of this list.
EXPERIMENTAL ENDPOINT: max activity

>>> assay_result("C[C@@H]1CN([C@@H](C)CO)C(=O)c2c(c3ccccc3n2C)-c2ccccc2CO[C@H]1CN(C)S(=O)(=O)c1cccc(C#N)c1")
"31.4% (inactive)"
>>> assay_result("O=C(C[C@@H]1CC[C@@H]2[C@H](COC[C@@H](O)CN2S(=O)(=O)c2ccccc2)O1)NCc1ccc(-c2ccccc2)cc1")
"25.5% (inactive)"
>>> assay_result("N#C[C@@H]1[C@@H](c2ccc(/C=C/c3ccccc3)cc2)[C@@H](CO)N1C(=O)C1CCC1")
"38.2% [at 35 µM] (inactive)"

Quick note, max activity for CC(=O)N(C)C[C@H]1Oc2ncc(-c3ccc(C(=O)N(C)C)cc3)cc2C(=O)N([C@@H](C)CO)C[C@H]1C landed at -3.53% [at 1.95 µM] (inactive)

---

Listed below: max activity values for each entry.
EXPERIMENTAL DETAILS: inhibitors of Clostridioides difficile proliferation – 4-point retest, confirmation (AID 1224921);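 note: plate controls were DMSO wells for no effect and levofloxacin 16 µg/mL wells for full effect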
CONDITION NOTES: Clostridioides difficile clinical isolate growth, OD600, 24 h, hits give low values; at 30 µM unless noted
In all, about 1,400 compounds went through this assay and about 350 (25%) were called active. About 2% were inconclusive and are not listed. Not all results are given here. Results with a measured potency or affinity are listed apart.

>>> assay_result("C[C@@H]1CN([C@H](C)CO)C(=O)c2cc(NC(=O)Nc3cccc4ccccc34)ccc2O[C@@H](C)CCCCO[C@H]1CN(C)S(=O)(=O)c1ccc(F)cc1")
"36.9% (inactive)"
>>> assay_result("COc1ccc(-c2ccc([C@H]3[C@@H](C#N)N(C(=O)C4CCCC4)[C@@H]3CO)cc2)cc1")
"25.1% [at 35 µM] (inactive)"
>>> assay_result("C[C@@H]1CN([C@@H](C)CO)S(=O)(=O)c2ccc(-c3cncnc3)cc2O[C@H]1CN(C)C(=O)CC1CC1")
"-11% [at 8 µM] (inactive)"

Now examine the next entry.
Quick note, max activity for C[C@H](CO)N1C[C@H](C)[C@@H](CN(C)C(=O)Nc2ccc(C(F)(F)F)cc2)Oc2c(NC(=O)c3ccc(-c4nccs4)cc3)cccc2C1=O landed at 7.84% (inactive)
